Target: mGPR65 (Mus musculus, UniProt Q61038)
Construct: expressed in transfected cells; host or cells: HeLa (ATCC CCL-2), lentiviral transduction, pLX317
Sequence (Q61038 whole entry): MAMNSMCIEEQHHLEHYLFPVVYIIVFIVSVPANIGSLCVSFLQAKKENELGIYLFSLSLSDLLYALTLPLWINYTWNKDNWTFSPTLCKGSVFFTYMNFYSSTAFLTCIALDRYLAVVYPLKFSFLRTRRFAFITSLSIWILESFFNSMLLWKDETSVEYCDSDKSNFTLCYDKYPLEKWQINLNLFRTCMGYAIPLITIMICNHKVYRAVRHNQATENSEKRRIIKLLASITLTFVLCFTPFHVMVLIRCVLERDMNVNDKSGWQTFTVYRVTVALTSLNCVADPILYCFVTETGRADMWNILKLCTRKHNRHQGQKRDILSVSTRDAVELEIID
Experiment: cAMP detection in HeLa expression cell line, mGPR65
Assay type: cell-based
Conditions: mGPR EC50 (uM), 2nd mGPR column pair; NA = no activity
Procedure: HeLa stable expression cell lines were produced by lentiviral transduction. Briefly, lentiviral plasmids for each GPCR with a C-terminal V5 Tag ([…]) were made in a pLX317 backbone using competent Escherichia coli (New England Biolabs, C3050H). […] cAMP was measured in cells using the Lance Ultra cAMP Kit. […] Cells were counted in HBSS (Gibco, 14025092) and then resuspended in stimulation buffer prepared according to the manufacturer’s instructions and adjusted to pH 7.2 using 1 M sodium hydroxide. […]
measured.quantity: EC50 (µM)
Write the value in µM as a bare number.

INSERT INTO results (smiles_record, measured_quantity, unit_abbreviation, readout_value) VALUES
  ('Cc1ccc(NC(=O)c2cnn3c(O)cc(-c4ccc(COC(C)C)cc4)nc23)c(F)c1', 'EC50', 'µM', 0.371),
  ('Cc1ccc(NC(=O)c2cnn3c(O)cc(-c4ccc(COC(C)C)cc4)nc23)cc1Cl', 'EC50', 'µM', 0.276),
  ('Cc1ccc(NC(=O)c2cnn3c(O)cc(-c4ccc(F)c(Cl)c4)nc23)cc1', 'EC50', 'µM', 0.537);

Specify EC50 for COCc1ccc(-c2cc(O)n3ncc(C(=O)Nc4ccc(OC)cc4)c3n2)cc1 and stop.
1.26

Specify EC50 for COCc1ccc(-c2cc(O)n3ncc(C(=O)Nc4ccccc4)c3n2)cc1 and stop.
4.76

Specify EC50 for Cc1ccc(NC(=O)c2cnn3c(O)cc(-c4cnc(N5CCN(C)CC5)c(Cl)c4)nc23)cc1 and stop.
5.03

Specify EC50 for Cc1ccc(NC(=O)c2cnn3c(O)cc(-c4ccc(COC(C)C)cc4)nc23)cc1F and stop.
0.944

Specify EC50 for Cc1ccc(NC(=O)c2cnn3c(O)cc(-c4ccc(N5CCN(C)CC5)cc4)nc23)cc1 and stop.
1.1
